# MEASUREMENT NOTES: in vivo
# DETAILS: C57BL/6, mouse, po, 10 mg/kg
MEASURE NAME: Cmax

1. Nc1ncc(-c2ncccc2OC(F)(F)F)nc1C(=O)Nc1ncccc1N1CCC(N)CC1
946 nM

###

# MEASUREMENT NOTES: in vivo
# DETAILS: C57BL/6, mouse, intravenous, 1 mg/kg
MEASURE NAME: Vd (L/kg)

1) Nc1ncc(-c2ncccc2OC(F)(F)F)nc1C(=O)Nc1ncccc1N1CCC(N)CC1 [Example 2]
0.4

###

# MEASUREMENT NOTES: in vivo
# DETAILS: C57BL/6, mouse, po, 10 mg/kg
MEASURE NAME: Tmax (min)

1) Nc1ncc(-c2ncccc2OC(F)(F)F)nc1C(=O)Nc1ncccc1N1CCC(N)CC1 [Example 2]
18

###

# MEASUREMENT NOTES: in vivo
# DETAILS: C57BL/6, mouse, intravenous, 1 mg/kg
MEASURE NAME: clearance

1. Nc1ncc(-c2ncccc2OC(F)(F)F)nc1C(=O)Nc1ncccc1N1CCC(N)CC1 [Example 2]
14 mL/min/kg

###

# MEASUREMENT NOTES: in vivo
# DETAILS: Wistar-Han, rat, po, 3 mg/kg
MEASURE NAME: AUC (µM·h)

1. Nc1ncc(-c2ncccc2OC(F)(F)F)nc1C(=O)Nc1ncccc1N1CCC(N)CC1
2.77
